Source listed as patent US20230002757A1.

# Experimental System: T1, PD-1 protein (human, UniProt Q15116 25-167, limits assumed)
# T1 construct: also called human PD-1
# T1 sequence (Q15116 25-167 limits assumed): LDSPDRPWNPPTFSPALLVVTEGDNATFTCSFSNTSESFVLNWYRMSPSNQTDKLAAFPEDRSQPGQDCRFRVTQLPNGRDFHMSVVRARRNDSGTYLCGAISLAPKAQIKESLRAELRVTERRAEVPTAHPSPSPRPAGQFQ
# Procedure Text: blocking ELISA, PD-1 coated, competitor biotin PD-L1
Property Label: OD450 of PD-L1 bound, antibody at 9.75 µg/mL (OD450)
Respond with the bare value in OD450.

Example entries begin here.
Binder	Assay Result
504#SS28 (Fc fusion, not shown: a dimerising Fc or GST; small tags and cut ends, VHH-FC construct from HEK293 cells) VHH: QVQLVESGGGSVQPGGSLRLSCAVSGFTLDYYDIGWFRQAPGKERDWISCISSSDGSQYYADSVKDRFFISRDNAKNTVYLQMNSLEPGDTAVYYCAADFDTYRFCSGFGPDAYSSWGQGTQVIVSS	3.27
504#SS29 (Fc fusion, not shown: a dimerising Fc or GST; small tags and cut ends, VHH-FC construct from HEK293 cells) VHH: QVQLVESGGGLVQAGGSLRLSCAASGRTFSGYTMGWFRRAPGKERELIANILWNSARRYYADSVKGRFTISRDNAMNTVDLQMNSLKPEDTAVYYCAVLVDSTYRFSNQGTQVTVSS	3.31
504#SS12 (Fc fusion, not shown: a dimerising Fc or GST; small tags and cut ends, VHH-FC construct from HEK293 cells) VHH: EVQVVESGGGLVQPGGSLRLSCAVSGRGFSEHAMGWYRQSPGKQREFVAGVTSYGGTNYADSVKGRFTISRDNVGNTVFLQMNSLKPEDTAVYYCNYKRGHYPDGVSTYEYWGQGTQVTVSS	3.28

Now turn to the next binder.
Q. For the binder 504#SS2 (Fc fusion, VHH-FC construct from HEK293 cells; not shown: The (G4S)3 linker leading to it is left out with it) VHH: EVQVVESGGGLVKTGDSLRLSCAASGGTISGYEMGWFRQAPGKEREFVAGISRNGRSTGYSDSAKDRFTISRDNAKNTVYLQMNSLKPEDTAVYYCAAGLKADYGDSYVDTSTRNYNYWGQGTQVTVSS , what OD450 of PD-L1 bound, antibody at 9.75 µg/mL is on record?
A. 3.31
